- run.conditions: in NMP, 303.2 K
assay.metric: solubility (mole fraction)

{"columns": ["compound", "test.value"],
 "data": [
  ["CC(=O)N1CCN(c2ccc(OC[C@@H]3CO[C@@](Cn4ccnc4)(c4ccc(Cl)cc4Cl)O3)cc2)CC1 (racemic)", 0.0271]
]}

----------
- run.conditions: in ethanol, 313.2 K

{"columns": ["molecule", "solubility (mole fraction)"],
 "data": [
  ["CC(=O)N1CCN(c2ccc(OC[C@@H]3CO[C@@](Cn4ccnc4)(c4ccc(Cl)cc4Cl)O3)cc2)CC1 (racemic)", 0.00527]
]}

----------
- run.conditions: in ethanol, 303.2 K

{"columns": ["compound", "solubility (mole fraction)"],
 "data": [
  ["CC(=O)N1CCN(c2ccc(OC[C@@H]3CO[C@@](Cn4ccnc4)(c4ccc(Cl)cc4Cl)O3)cc2)CC1 (racemic)", 0.00361]
]}
